Experiment: Lipophilicity, logK of compound at pH 7.7 in presence of 80% acetonitrile by HPLC analysis
Format: physicochemical
Conditions: buffer
Parameter: log K
Answer as a number with no unit attached.

Molecule | log K
O=C1CCC(N2C(=O)c3cccc(OCCCCCn4cc(CCCCCN5CCC(NC(=O)c6n[nH]cc6NC(=O)c6c(Cl)cccc6Cl)CC5)nn4)c3C2=O)C(=O)N1 (stereo not drawn) | 0.112
O=C1CCC(N2C(=O)c3cccc(OCCCCCCCCn4cc(CCN5CCC(NC(=O)c6n[nH]cc6NC(=O)c6c(Cl)cccc6Cl)CC5)nn4)c3C2=O)C(=O)N1 (stereo not drawn) | 0.146

# input for lookup
Sample O=C1CCC(N2C(=O)c3cccc(OCCCCCCCn4cc(CCCCCCCN5CCC(NC(=O)c6n[nH]cc6NC(=O)c6c(Cl)cccc6Cl)CC5)nn4)c3C2=O)C(=O)N1 (stereo not drawn) — what was its log K?
0.176

====

Assay: Aqueous solubility of the compound
Type: physicochemical
Parameter: solubility (µM)
Write the number in µM without appending the unit.

Illustrative cases are given below, each with its answer.
Molecule | solubility / µM
O=C1CCC(N2C(=O)c3cccc(OCCCCCn4cc(CCCCCN5CCC(NC(=O)c6n[nH]cc6NC(=O)c6c(Cl)cccc6Cl)CC5)nn4)c3C2=O)C(=O)N1 (centres undefined) | 13.2
O=C1CCC(N2C(=O)c3cccc(OCCCCCCCCn4cc(CCN5CCC(NC(=O)c6n[nH]cc6NC(=O)c6c(Cl)cccc6Cl)CC5)nn4)c3C2=O)C(=O)N1 (centres undefined) | 5.65

Kindly consider the entry below.
Form field: reported solubility of O=C1CCC(N2C(=O)c3cccc(OCCCCn4cc(CCCCCCN5CCC(NC(=O)c6n[nH]cc6NC(=O)c6c(Cl)cccc6Cl)CC5)nn4)c3C2=O)C(=O)N1 (centres undefined)
12.9

====

Molecular target: Protein cereblon/Cyclin-dependent kinase 9 (Homo sapiens, UniProt P50750+Q96SW2)
Sequence (P50750 whole entry): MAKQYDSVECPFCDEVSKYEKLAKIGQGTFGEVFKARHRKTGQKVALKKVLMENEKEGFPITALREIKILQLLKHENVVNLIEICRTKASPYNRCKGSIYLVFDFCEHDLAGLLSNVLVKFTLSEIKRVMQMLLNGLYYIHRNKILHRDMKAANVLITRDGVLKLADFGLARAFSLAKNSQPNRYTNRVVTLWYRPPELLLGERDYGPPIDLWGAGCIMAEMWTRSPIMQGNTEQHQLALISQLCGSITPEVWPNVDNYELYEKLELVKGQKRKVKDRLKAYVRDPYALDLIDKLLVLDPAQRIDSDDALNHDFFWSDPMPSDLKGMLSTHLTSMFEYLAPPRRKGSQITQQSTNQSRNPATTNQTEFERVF
Sequence (Q96SW2 whole entry): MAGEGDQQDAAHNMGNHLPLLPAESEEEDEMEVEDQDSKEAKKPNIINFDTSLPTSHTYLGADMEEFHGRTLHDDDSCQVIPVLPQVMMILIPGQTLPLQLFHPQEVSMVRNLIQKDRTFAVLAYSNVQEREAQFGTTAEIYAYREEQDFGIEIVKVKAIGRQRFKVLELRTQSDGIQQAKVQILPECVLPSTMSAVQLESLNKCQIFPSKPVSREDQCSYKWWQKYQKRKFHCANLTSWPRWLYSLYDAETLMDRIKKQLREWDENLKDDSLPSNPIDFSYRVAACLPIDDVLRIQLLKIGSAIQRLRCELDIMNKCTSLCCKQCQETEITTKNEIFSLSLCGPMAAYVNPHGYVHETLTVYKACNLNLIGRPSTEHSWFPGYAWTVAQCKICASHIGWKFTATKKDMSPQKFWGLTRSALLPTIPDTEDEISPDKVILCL
Assay: PROTAC activity at CRBN/CDK9 in human MOLM-13 cells assessed as induction of CDK9 degradation incubated for 6 hrs by Western blot analysis
Parameter: DC50 (nM)
Enter your answer as a number in nM; do not include the unit.

Molecule | Parameter | Measured
O=C1CCC(N2C(=O)c3cccc(OCCCCCCCn4cc(CCCCCCCN5CCC(NC(=O)c6n[nH]cc6NC(=O)c6c(Cl)cccc6Cl)CC5)nn4)c3C2=O)C(=O)N1 (centres undefined) | DC50 | 60
O=C1CCC(N2C(=O)c3cccc(OCCCCCCCCn4cc(CCCCCCN5CCC(NC(=O)c6n[nH]cc6NC(=O)c6c(Cl)cccc6Cl)CC5)nn4)c3C2=O)C(=O)N1 (centres undefined) | DC50 | 70

Which DC50 value belongs to O=C1CCC(N2C(=O)c3cccc(OCCCCCn4cc(CCCCCN5CCC(NC(=O)c6n[nH]cc6NC(=O)c6c(Cl)cccc6Cl)CC5)nn4)c3C2=O)C(=O)N1 (centres undefined) ?
950

What do you get for O=C1CCC(N2C(=O)c3cccc(OCCCCCn4cc(CCCCN5CCC(NC(=O)c6n[nH]cc6NC(=O)c6c(Cl)cccc6Cl)CC5)nn4)c3C2=O)C(=O)N1 (centres undefined) ?
130

====

Quick list: log K per entry.
Experiment: Lipophilicity, logK of compound at pH 7.7 in presence of 80% acetonitrile by HPLC analysis
Assay type: physicochemical
Conditions: buffer

Compound | log K
O=C1CCC(N2C(=O)c3cccc(OCCCCCCCCn4cc(CCCCCCN5CCC(NC(=O)c6n[nH]cc6NC(=O)c6c(Cl)cccc6Cl)CC5)nn4)c3C2=O)C(=O)N1 (stereo not drawn) | 0.184

Reported log K for O=C1CCC(N2C(=O)c3cccc(OCCCCn4cc(CCCCCCCCCCN5CCC(NC(=O)c6n[nH]cc6NC(=O)c6c(Cl)cccc6Cl)CC5)nn4)c3C2=O)C(=O)N1 (stereo not drawn) : what is it?
0.197

Cool, now O=C1CCC(N2C(=O)c3cccc(OCCCCCn4cc(CCCCN5CCC(NC(=O)c6n[nH]cc6NC(=O)c6c(Cl)cccc6Cl)CC5)nn4)c3C2=O)C(=O)N1 (stereo not drawn)
0.1

====

System: MV4-11
Assay: Antiproliferative activity against human MV4-11 cells assessed as inhibition of cell growth measured after 48 hrs by MTS assay
Format: functional, cell-based
Details: MV4-11, 48 h, read-out: IC50
Parameter: IC50 (µM)
Numbers only; they are read as µM.

Solved cases (2 shown):
Compound | Target | IC50 (µM)
O=C1CCC(N2C(=O)c3cccc(OCCCCn4cc(CCCCCCN5CCC(NC(=O)c6n[nH]cc6NC(=O)c6c(Cl)cccc6Cl)CC5)nn4)c3C2=O)C(=O)N1 (centres undefined) | MV4-11 | 0.07
O=C1CCC(N2C(=O)c3cccc(OCCCCCCCCn4cc(CCCCCCN5CCC(NC(=O)c6n[nH]cc6NC(=O)c6c(Cl)cccc6Cl)CC5)nn4)c3C2=O)C(=O)N1 (centres undefined) | MV4-11 | 0.07

For O=C(NC1CCNCC1)c1n[nH]cc1NC(=O)c1c(Cl)cccc1Cl , what is its reported IC50?
0.12

Input O=C1CCC(N2C(=O)c3cccc(OCCCCCn4cc(CCCCCN5CCC(NC(=O)c6n[nH]cc6NC(=O)c6c(Cl)cccc6Cl)CC5)nn4)c3C2=O)C(=O)N1 (centres undefined)
0.13
